Source of measurements: ChEMBL document CHEMBL4043218

Kindly state IC50 for each of the entries shown.
assayedTarget: 25-hydroxyvitamin D-1 alpha hydroxylase, mitochondrial (Homo sapiens, UniProt O15528)
Sequence (O15528 whole entry): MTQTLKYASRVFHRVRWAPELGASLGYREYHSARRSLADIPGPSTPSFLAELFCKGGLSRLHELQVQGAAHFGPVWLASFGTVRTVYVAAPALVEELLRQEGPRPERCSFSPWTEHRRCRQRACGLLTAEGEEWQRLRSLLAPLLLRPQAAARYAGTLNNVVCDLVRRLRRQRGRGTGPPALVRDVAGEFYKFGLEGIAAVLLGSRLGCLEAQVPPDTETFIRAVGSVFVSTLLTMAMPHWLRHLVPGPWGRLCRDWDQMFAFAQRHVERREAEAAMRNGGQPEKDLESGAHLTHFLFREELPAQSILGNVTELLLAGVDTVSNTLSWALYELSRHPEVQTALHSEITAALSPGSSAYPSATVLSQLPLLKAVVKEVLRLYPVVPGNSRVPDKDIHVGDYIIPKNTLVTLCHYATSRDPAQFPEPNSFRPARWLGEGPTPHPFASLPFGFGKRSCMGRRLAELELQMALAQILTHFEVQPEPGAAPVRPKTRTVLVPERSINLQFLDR
assayOverview: Inhibition of human CYP27B1
Hi, when you answer, please include the unit after the number. Thanks!

[[record]]
compound = "CN(C)c1cccc2c(S(=O)(=O)NC(Cn3ccnc3)c3ccc(Cl)cc3Cl)cccc12 (configuration not stated)"
valuereported = "95.2 nM"


Could you now look at the following compound, please?
Exercise: Fill in the blank: the reported IC50 of CN(C)CCn1nnnc1SCC(O)(Cn1ccnc1)c1ccc(Cl)cc1Cl (configuration not stated) is ____.
Key: 60.2 nM

====

Organism: Homo sapiens
assayOverview: Selectivity index, ratio of IC50 for human CYP24A1 to IC50 for human CYP27B1
measuredAttribute: Ratio IC50
Give bare numbers.

[[record]]
molecule = "Cc1[nH]nc(O)c1C(c1cccc(OCc2ccncc2)c1)c1c(O)n[nH]c1C"
measuredattribute = "Ratio IC50"
valuereported = 5

[[record]]
molecule = "CN(C)c1cccc2c(S(=O)(=O)NC(Cn3ccnc3)c3ccc(Cl)cc3Cl)cccc12 (centres undefined)"
measuredattribute = "Ratio IC50"
valuereported = 47

[[record]]
molecule = "CN(C)CCn1nnnc1SCC(O)(Cn1ccnc1)c1ccc(Cl)cc1Cl (centres undefined)"
measuredattribute = "Ratio IC50"
valuereported = 66


Below: the item to evaluate.
Exercise: Give the measured Ratio IC50 of Cc1[nH]nc(O)c1C(c1ccc(OCc2ccncc2)cc1)c1c(O)n[nH]c1C .
Key: 5
